- System: MDA-N
- TEST PROTOCOL: NCI tumour cell line growth inhibition, 48 h
The source made the active and inactive calls. No stated cut-off is given here; in the data, active = GI50 up to about 1.1 µM and inactive = higher.
Possible outcomes: true for active, false for inactive

>  <MOLECULE>
Fc1cc(F)c(F)c(S)c1F

>  <CLASS>
false

$$$$
>  <MOLECULE>
C[C@@H]1Nc2cc(NC(=O)OCCF)nc(N)c2N=C1c1ccccc1

>  <CLASS>
true

$$$$
>  <MOLECULE>
CCC1(OC(=O)CN2CCN(CCO)CC2)C(=O)OCc2c1cc1n(c2=O)Cc2cc3ccccc3nc2-1 (stereo not given)

>  <CLASS>
false

$$$$
>  <MOLECULE>
COC(=O)NNC(=O)OC.COC(=O)Nc1ccccc1NC(=O)OC.COC(=O)Oc1nn(C(=O)OC)c(=O)c2ccccc12

>  <CLASS>
false

$$$$
>  <MOLECULE>
Cc1ccc(Cc2nnc(S)[nH]2)cc1

>  <CLASS>
false

$$$$

Value source: ChEMBL document CHEMBL1201862
